test system: Fibroblast; experiment: Multiplex assay against human fibroblast; format: toxicity, cell-based; conditions: 24 h, 1 µM, compound concentration 1 uM, replicate 2
Non-standard residues stand in square brackets, D forms with d. Residues, ends and D or L forms follow the SMILES beside them.
propertyName: Population Healthy Nuclei (%)
Give bare numbers, in %.

Below: 5 molecules and their reported Population Healthy Nuclei (%).
Task item: Query (molecule): `CCc1nn2c(C)cc(C)nc2c1Cc1ccc(-c2nnc(C3CCNCC3)o2)cc1` ; field requested: Population Healthy Nuclei (%)
Reply: 49

Task item: Would you kindly repeat that for `CCCCC[C@H](O)/C=C/[C@H]1[C@H](O)CC(=O)[C@@H]1CCCCCCC(=O)O` ?
Reply: 53

Task item: Would you kindly repeat that for CN(C)C/C=C/C(=O)Nc1ccc(C(=O)N2CCCC(Nc3ncc(Cl)c(-c4c[nH]c5ccccc45)n3)C2)cc1 (stereo not drawn) ?
Reply: 49

Task item: Would you kindly repeat that for `Nc1nc(-c2ccco2)c2cnn(Cc3ccccc3F)c2n1` ?
Reply: 53

Task item: Would you kindly repeat that for Cc1ccc(OCC(O)C(C)NC(C)C)c2c1CCC2.Cl (stereo not drawn) ?
Reply: 46

I'm hoping you can list Population Healthy Nuclei (%) for every molecule here, please.
1. CC(C)C[C@@H]1NC(=O)[C@@H](C(C)C)NC(=O)[C@@H]2CCCN2C(=O)[C@@H](CC(=O)O)NC(=O)[C@@H](Cc2c[nH]c3ccccc23)NC1=O [BQ-123] (cyclo(L[dW][dD]P[dV]))
2. COc1cc(OC2CCN(C(C)=O)CC2)ccc1C(=O)N1CCC(N2C(=O)OCc3ccccc32)CC1
3. COc1cc(C(=O)N2CC[C@@H](O)[C@@H](N)C2)cc2nc(-c3cc4ccccc4n3CC3CC3)n(C)c12.Cl

Reply:
1. 57
2. 51
3. 36
